Hey, just so you know, these numbers are from PubChem BioAssay (NCATS).

target: Retinaldehyde dehydrogenase 3 (Homo sapiens) (UniProt P47895); experiment: qHTS for Inhibitors of the Aldehyde Dehydrogenase Family (ALDH1A3) Primary screen (AID 2061315); settings: ALDH inhibition qHTS; series mostly up to 56 µM;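 further: plate controls were DMSO vehicle for no effect and reference inhibitor for full effect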
Results filed as inconclusive are left out. The source made the active and inactive calls. The call rests on the fitted dose curve; in most records, active means well fitted inhibition curve with a large enough effect; inconclusive means small, poorly fitted or top-dose-only effect; inactive means no such curve, though single readings can be large or run the other way.
Readout kind: activity change, negative = inhibition

O=C(/C=C/c1cccnc1)Nc1cccc([S+](=O)([O-])Nc2ccccc2F)c1; inactive
C=C/C=C/[C@@H]1OC[C@H](/C=C/C=C/C)[C@H]1O; inactive
CN[C@H](CC(C)C)C(=O)N[C@H]1C(=O)N[C@@H](CC(N)=O)C(=O)N[C@H]2C(=O)N[C@H]3C(=O)N[C@H](C(=O)N[C@H](C(=O)O)c4cc(O)cc(O)c4-c4cc3ccc4O)[C@H](O[C@H]3C[C@](C)(N)[C@@H](O)[C@H](C)O3)c3ccc(c(Cl)c3)Oc3cc2cc(c3O[C@@H]2O[C@H](CO)[C@@H](O)[C@H](O)[C@H]2O[C@H]2C[C@](C)(NCc3ccc(-c4ccc(Cl)cc4)cc3)[C@@H](O)[C@H](C)O2)Oc2ccc(cc2Cl)[C@H]1O; inactive

====

Experiment: BET inhibitor-based combinations targeting novel dependencies in MECOM-rearranged (r) AML: AML-191 cell line (AID 2202236; further: nearly all actives have a fitted effect of over 35% in size)
Conditions: AML-191 viability, CellTiter-Glo luminescence, 48 h; series mostly up to 46 µM
Method: Ecotropic viral insertion site 1 (EVI1) is located on chromosome 3q26.2 as part of the MECOM (MDS and EVI1 complex) locus. […] A collection of 2480 mechanistically annotated dugs (MIPE v5.0) was used to screen four 3q26.2 rearranged AML cell lines and three non-3q26.2 rearranged AML cell lines. […] Cell viability was determined by luminescence based, Cell Titer Glo assay (Promega). […] Luminescence readings were taken using a Viewlux (PerkinElmer) with a 2 s exposure time per plate. […]
Inconclusive results are not listed. The source made the active and inactive calls. The call rests on the fitted dose curve; in most records, active means well fitted inhibition curve with a large enough effect; inconclusive means small, poorly fitted or top-dose-only effect; inactive means flat fitted curve, though single readings scatter.
Respond only with the outcome that fits, drawn from active, inactive

Observe how each entry below is paired with its result.
CCOC(=O)N1c2ccc(C(F)(F)F)cc2[C@@H](N(Cc2cc(C(F)(F)F)cc(C(F)(F)F)c2)C(=O)OC)C[C@H]1CC; inactive
COC(=O)Nc1nc2ccc(C(=O)c3cccs3)cc2[nH]1; active
Cc1ccc(S(=O)(=O)N[C@@H](Cc2ccccc2)C(=O)CCl)cc1; active
CN1CCN(c2ccc(OC(F)(F)F)c(Nc3ncc4c(n3)-c3c(c(C(N)=O)nn3CCO)CC4)c2)CC1; active
Cc1cc(Nc2cc(NC(=O)c3c(Cl)cccc3Cl)ccn2)nc(N)n1; active
Cc1coc2c1C(=O)C(=O)c1c-2ccc2c1CCCC2(C)C; inactive
COc1ccc2[nH]c(S(=O)Cc3ncc(C)c(OC)c3C)nc2n1 (stereo not given); inactive
OC[C@@H](O)[C@@H](O)[C@H](O)[C@@H](O)CO; inactive

Could you check what this test reported for N#Cc1cc(NC(=O)Nc2nnc(-c3ccncc3)s2)ccc1-c1cn[nH]c1 ?
inactive

Could you check what this test reported for Nc1cccc2c1C(=O)N(C1CCC(=O)NC1=O)C2=O (stereo not given) ?
inactive

====

assay: BET inhibitor-based combinations targeting novel dependencies in MECOM-rearranged (r) AML: MV-4-11 cell line (AID 2202233); conditions: MV-4-11 AML viability, CellTiter-Glo luminescence, 48 h; series mostly up to 46 µM;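 further: plate controls were DMSO for no effect and blank wells for full effect; nearly all actives have a fitted effect of over 45% in size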
Records with an inconclusive call do not appear. Active and inactive are the calls of the source. Calls follow the shape of the dose curve; as a rule, active = well fitted inhibition curve with a large enough effect; inconclusive = small, poorly fitted or top-dose-only effect; inactive = no such curve, though single readings can be large or run the other way.
Please provide measured viability, % of control for the entries that follow.

Before answering, review these 5 worked examples.
CC(C)NC(=O)N1CC[C@H](N=C2Nc3cc(F)ccc3N(CC(F)F)c3ccc(Cl)cc32)C1; 94.7% [at 8.46 µM] (inactive)
O=C(O)c1cn(C2CC2)c2cc(N3CCNCC3)c(F)cc2c1=O; 112% [at 8.46 µM] (inactive)
Cn1c(CNc2ccc(C(=N)N)cc2)nc2cc(C(=O)N(CCC(=O)O)c3ccccn3)ccc21; 133% [at 0.315 µM] (inactive)
CCN(CC)CCCC(C)Nc1ccnc2cc(Cl)ccc12 (configuration not stated); 101% [at 8.46 µM] (inactive)
O=P(O)(O)C(O)(Cn1ccnc1)P(=O)(O)O; 141% [at 5.12 µM] (inactive)

# map each compound to its viability, % of control
1. Nc1ccn(C[C@@H](CO)OCP(=O)(O)O)c(=O)n1
2. COc1c(C)cc(NC(=O)c2nn(Cc3ccc(F)cc3)c3c2CN(C(=O)c2ccc[nH]2)C[C@]3(C)C(N)=O)cc1C

1. 126% [at 8.46 µM] (inactive)
2. 114% [at 8.46 µM] (inactive)
